systemUnderTest: UniProtKB P14555
Sequence (P14555 21-144): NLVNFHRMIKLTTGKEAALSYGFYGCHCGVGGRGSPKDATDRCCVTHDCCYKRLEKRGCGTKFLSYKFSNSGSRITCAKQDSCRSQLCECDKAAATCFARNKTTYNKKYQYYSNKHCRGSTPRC
runDescription: Inhibition test of human secretory phospholipase A2, chromogenic assay, Type II enzyme
conditionDescription: human type II enzyme 50 ng/well, absorbance change 30 min, OD 405 nm
Description: In order to identify and evaluate an inhibitor of recombinant human secretory phospholipase A2, the following chromogenic assay is utilized. The assay herein has been applied for high volume screening wherein 96 well microtiterplate is used. […] 5) Changes in absorbancy for 30 minutes for humane type I, type II, and type X enzyme and for 45 min for human type V enzyme, are measured by a plate reader, and inhibition activity was calculated (OD: 405 nm). […]
reportedMetric: IC50 (nM)
Supply the numeric figure in nM, leaving out any unit text.

Cc1cc(OCC(=O)O)c2c3c(c(Cc4ccccc4)n2n1)CCC=C3C(N)=O [Compound I-1]; 7
Cc1cn2c(Cc3ccccc3)c3c(c2c(OC(C)C(=O)O)n1)C(C(N)=O)=CCC3 (stereo not shown) [Compound I-13]; 19
Cc1cc(OC(C)C(=O)O)c2c3c(c(Cc4ccc(Cl)cc4)n2n1)CCC=C3C(N)=O (stereo not shown) [Compound I-6]; 17

# input for lookup
Q. Suppose we examine the compound NC(=O)C1=CCCc2c1c1c(OCC(=O)O)cc(-c3ccccc3)nn1c2Cc1ccccc1 [Compound I-9] ; what IC50 value has been reported?
A. 8

* * *

systemUnderTest: human type I sPLA2 (Homo sapiens)
Sequence (P04054 23-148): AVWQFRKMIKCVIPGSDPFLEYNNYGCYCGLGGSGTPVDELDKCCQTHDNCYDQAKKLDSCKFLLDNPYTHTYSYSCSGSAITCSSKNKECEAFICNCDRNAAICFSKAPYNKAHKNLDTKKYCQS
runDescription: Inhibition test of human secretory phospholipase A2, chromogenic assay, Type I enzyme
Type: biochemical
conditionDescription: human type I enzyme 90 ng/well, absorbance change 30 min, OD 405 nm
compounds and their reported IC50
Supply the numeric figure in nM, leaving out any unit text.

For orientation, consider the following solved cases.
Cc1ccc(Cc2c3c(c4c(OC(C)C(=O)O)cc(C)nn24)C(C(N)=O)=CCC3)cc1 (centres unmarked) [Compound I-4]; 139
Cc1ccc(Cc2c3c(c4c(OCC(=O)O)cc(C)nn24)C(C(N)=O)=CCC3)cc1 [Compound I-3]; 460
NC(=O)C1=CCCc2c1c1c(OCC(=O)O)cc(-c3ccccc3)nn1c2Cc1ccccc1 [Compound I-9]; 51

Q. Suppose we examine the compound COc1cccc(Cc2c3c(c4c(OCC(=O)O)cc(C)nn24)C(C(N)=O)=CCC3)c1 [Compound I-7] ; what IC50 value has been reported?
A. 215

Q. Suppose we examine the compound Cc1cc(OC(C)C(=O)O)c2c3c(c(Cc4ccc(Cl)cc4)n2n1)CCC=C3C(N)=O (centres unmarked) [Compound I-6] ; what IC50 value has been reported?
A. 86

Q. Suppose we examine the compound Cc1cc(OCC(=O)O)c2c3c(c(Cc4ccc(Cl)cc4)n2n1)CCC=C3C(N)=O [Compound I-5] ; what IC50 value has been reported?
A. 147

Q. Suppose we examine the compound Cc1cn2c(Cc3ccccc3)c3c(c2c(OCC(=O)O)n1)C(C(N)=O)=CCC3 [Compound I-11] ; what IC50 value has been reported?
A. 234

Q. Suppose we examine the compound Cc1cc(OCC(=O)O)c2c3c(c(Cc4ccccc4)n2n1)CCC=C3C(N)=O [Compound I-1] ; what IC50 value has been reported?
A. 170

Data provenance is patent US6756376B1.
